// data source = PubChem BioAssay (NCATS)

Target: Aldehyde dehydrogenase, mitochondrial (Homo sapiens) (UniProt P05091)
Test: qHTS for Inhibitors of the Aldehyde Dehydrogenase Family (ALDH2) Primary screen (AID 2061308); further: nearly all actives have a fitted effect of over 55% in size
Conditions: ALDH2 enzyme inhibition qHTS, 1536-well; series mostly up to 56 µM
Inconclusive results are not listed. Active and inactive are the calls of the source. The call rests on the fitted dose curve; in most records, active means well fitted inhibition curve with a large enough effect; inconclusive means small, poorly fitted or top-dose-only effect; inactive means flat fitted curve, though single readings scatter. Square brackets hold non-standard residues; d marks the D form. Peptide text beside a SMILES is read from it. ξ: configuration not given here. ξPhe(βξ-Me) = CC(c1ccccc1)C(N)C(=O)O; GABA = NCCCC(=O)O
ENDPOINT_NAME: activity change, negative = inhibition

The following compounds have reported results that may help.
Request: Need activity change, negative = inhibition of Cc1nnc(-c2cnn(C)c2N)n1CCCn1ccnc1 , thanks.
Response: inactive

Request: Need activity change, negative = inhibition of C/C=C/C=C/[C@@H]1O[C@](O)([C@H](CC)C(=O)NC/C=C/C=C(\C)[C@@H](OC)[C@@H](C)C2OC(/C=C/C=C/C=C(\C)C(=O)c3c(O)cc[nH]c3=O)[C@H](O)[C@@H]2O)[C@H](O)[C@H](O)C1(C)C (stereo partly specified) , thanks.
Response: inactive

Request: Need activity change, negative = inhibition of CCC[C@@H]1C[C@@H](C(=O)N[C@@H]([C@H]2O[C@H](SC)[C@H](OP(=O)(O)O)[C@@H](O)[C@H]2O)[C@H](C)Cl)N(C)C1 , thanks.
Response: inactive

Request: Need activity change, negative = inhibition of CC1NC(=O)CCCNC(=O)C(Cc2c[nH]c3ccccc23)NC(=O)C(C)NC(=O)C(C(C)C)NC(=O)C(C(C)c2ccccc2)NC(=O)C(C(C)C)NC1=O (stereo not drawn) (cyclo([GABA]AV[ξPhe(βξ-Me)]VAW); configuration not given here) , thanks.
Response: inactive

Request: Need activity change, negative = inhibition of COc1cc2c(c(OC)c1CC=C(C)C)C[C@H](c1ccc(O)cc1O)CO2 , thanks.
Response: inactive

Request: Need activity change, negative = inhibition of Nc1nonc1C(=Nc1ccc(F)c(Cl)c1)NO , thanks.
Response: inactive

Request: Need activity change, negative = inhibition of C=C1C(=O)OC2/C=C(\C)CC/C=C(\C)CC(OC(C)=O)C12 (stereo unspecified) , thanks.
Response: inactive

Request: Need activity change, negative = inhibition of OC(CC1c2ccccc2-c2cncn21)C1CCCCC1 (stereo unspecified) , thanks.
Response: inactive

Request: Need activity change, negative = inhibition of O=C1NC(Cc2c[nH]c3ccccc23)C(=O)NC1Cc1c[nH]c2ccccc12 (stereo unspecified) , thanks.
Response: inactive

Request: Need activity change, negative = inhibition of NC(=O)c1ccc(C[C@H](C(=O)O)N2C(=O)c3ccc(C(=O)O)cc3C2=O)cc1 , thanks.
Response: inactive

Parameter requested: activity change, negative = inhibition. Apply to each item below.
1. FC(F)(F)c1ccc(-c2nc(-c3nnc4n3CCCCC4)c(C(F)(F)F)o2)cc1
2. Cc1ncc(NC(=O)c2ccc(CN3CCN(C)CC3)c(C(F)(F)F)c2)cc1Nc1nccc(-c2cccnc2)n1
3. C=C(C)C(C)C1OC23CC4(CO2)C(CCC2C5(C)CCC(OC6OCC(O)C(OC7OC(CO)C(O)C(OC8OCC(O)C(O)C8O)C7O)C6OC6OC(CO)C(O)C6O)C(C)(C)C5CCC24C)C3C(C)(O)C1OC(C)=O (stereo unspecified)

Response:
inactive
inactive
inactive
